Measured EC50, listed per entry.
target: β1-adrenergic receptor (Homo sapiens (Human)); experiment: cAMP Gs dynamic HTRF assay, β1 expressing CHO cells; type: cell-based; conditions: B1-AR; CHO-K cells; read-out: Average EC50 [Receptor subtype: B1-AR; Cell type: CHO-K]

compound	assay-system	EC50
CCN(CC)c1cccc([C@@H](O)CNC(C)(C)C)n1 [Compound 03-159]	β1-adrenergic receptor (Homo sapiens (Human))	10 to 100 nM
CC(C)(C)NC[C@H](O)c1cccc(-c2ccc(F)cc2)n1 [Compound 03-145]	β1-adrenergic receptor (Homo sapiens (Human))	10 to 100 nM
Cc1ccc([C@@H](O)CNC(C)(C)C)nc1C(F)(F)F [Compound 03-167]	β1-adrenergic receptor (Homo sapiens (Human))	< 10 nM

Requested read-out EC50, target or system β1-adrenergic receptor (Homo sapiens (Human)), entry O[C@H](CNC1Cc2ccccc2C1)c1cccc(C(F)(F)F)n1 [Compound 03-22]
> 1000 nM

Requested read-out EC50, target or system β1-adrenergic receptor (Homo sapiens (Human)), entry CN1CCN(c2cccc([C@@H](O)CNC(C)(C)C)n2)CC1 [Compound 03-139]
> 1000 nM

----------
Measured EC50, listed per entry for reference.
molecular target: β2 adrenergic receptors in human astrocytoma cells (1321N1) (Homo sapiens (Human), UniProt P07550); experiment: cAMP HTRF assay in human astrocytoma cells (1321N1); assay type: cell-based; settings: Endogenous receptor; 1321N1 cells; read-out: Average pEC50 [Receptor subtype: Endogenous; Cell type: 1321N1] (converted)
Sequence (P07550 whole entry): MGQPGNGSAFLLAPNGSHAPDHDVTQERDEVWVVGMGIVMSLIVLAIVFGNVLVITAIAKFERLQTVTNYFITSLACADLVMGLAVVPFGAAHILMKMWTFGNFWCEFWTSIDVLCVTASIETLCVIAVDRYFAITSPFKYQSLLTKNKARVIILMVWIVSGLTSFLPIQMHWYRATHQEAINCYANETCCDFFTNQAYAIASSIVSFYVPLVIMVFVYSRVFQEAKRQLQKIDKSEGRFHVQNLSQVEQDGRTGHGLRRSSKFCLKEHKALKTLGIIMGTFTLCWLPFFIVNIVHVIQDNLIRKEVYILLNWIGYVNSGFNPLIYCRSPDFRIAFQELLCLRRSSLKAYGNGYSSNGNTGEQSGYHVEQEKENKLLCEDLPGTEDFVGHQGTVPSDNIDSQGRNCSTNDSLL

A selection of reference data follows.
chemical-string	assay-endpoint	result-value
Cc1ccc([C@@H](O)CNC(C)(C)C)nc1	EC50	10 to 100 nM
CNc1cccc([C@H](O)CNC(C)(C)C)n1	EC50	> 1000 nM

Item under review: CC(C)(C)NC[C@@H](O)c1cccc(C2CCC2)n1 . Reported EC50?
100 to 1000 nM

----------
Overview of reported EC50 across a group of compounds:
target: β1-adrenergic receptor (Homo sapiens (Human), UniProt P08588); assay: cAMP Gs dynamic HTRF assay, β1 expressing CHO cells; type: cell-based; details: B1-AR; CHO-K1 (HitHunter); read-out: Average pEC50 [Receptor subtype: B1-AR; Cell type: CHO-K1 (HitHunter)] (converted)
Sequence (P08588 whole entry, species assumed): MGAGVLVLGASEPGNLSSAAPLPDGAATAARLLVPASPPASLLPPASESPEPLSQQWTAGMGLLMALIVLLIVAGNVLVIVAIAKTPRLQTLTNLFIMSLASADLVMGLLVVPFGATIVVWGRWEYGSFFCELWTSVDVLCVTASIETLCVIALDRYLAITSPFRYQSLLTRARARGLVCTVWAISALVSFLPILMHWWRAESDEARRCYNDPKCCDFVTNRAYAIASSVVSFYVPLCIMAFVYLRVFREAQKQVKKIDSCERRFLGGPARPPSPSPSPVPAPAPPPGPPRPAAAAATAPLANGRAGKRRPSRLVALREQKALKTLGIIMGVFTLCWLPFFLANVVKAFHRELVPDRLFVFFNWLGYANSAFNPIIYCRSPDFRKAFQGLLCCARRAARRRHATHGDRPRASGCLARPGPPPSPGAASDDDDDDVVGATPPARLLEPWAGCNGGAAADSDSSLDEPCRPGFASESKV

compound	assay-endpoint	result-value
Cc1ncc([C@@H](O)CNC(C)(C)C)c(C)n1 [Compound 03-261]	EC50	> 1000 nM
CC(C)(C)NC[C@H](O)c1cccc(-c2cnn[nH]2)n1 [Compound 03-200]	EC50	10 to 100 nM
CC(C)(C)NC[C@H](O)c1ccc(C#N)c(C(F)(F)F)n1 [Compound 03-30]	EC50	100 to 1000 nM
CNC(=O)c1cccc([C@@H](O)CNC(C)(C)C)n1 [Compound 03-85]	EC50	> 1000 nM

Which EC50 value is on record for CC(C)(C)NC[C@H](O)c1cccc(N2CCCCC2)n1 [Compound 03-137] ?
100 to 1000 nM

----------
Listed here: items and their measured EC50.
biological target: β2 adrenergic receptor (Homo sapiens (Human), UniProt P07550); assay: cAMP Gs dynamic HTRF assay, β2 expressing CHO cells; format: cell-based; conditions: B2-AR; CHO-K cells; read-out: Average EC50 [Receptor subtype: B2-AR; Cell type: CHO-K]
Sequence (P07550 whole entry, species assumed): as the sequence (P07550 whole entry) above

Below, 4 compounds whose answers are already recorded.
compound	assay-system	result-value
O[C@@H](CNC1CCC1)c1cccc(C(F)(F)F)n1	β2 adrenergic receptor (Homo sapiens (Human), UniProt P07550)	< 0.01 µM
CC(C)(C)NC[C@H](O)c1cccnc1C1CCCC1	β2 adrenergic receptor (Homo sapiens (Human), UniProt P07550)	0.01 to 0.1 µM
CC(C)(C)NC[C@H](O)c1cncc(C(F)(F)F)n1	β2 adrenergic receptor (Homo sapiens (Human), UniProt P07550)	0.01 to 0.1 µM
CC(C)(C)NC[C@H](O)c1cccnc1C1CC1	β2 adrenergic receptor (Homo sapiens (Human), UniProt P07550)	0.01 to 0.1 µM

// lookup EC50 for CC(C)(C)NC[C@@H](O)c1cccc(N2CC3CCCC3C2)n1 (stereo partly drawn)
0.01 to 0.1 µM

Quick one: EC50 of CC(C)(C)NC[C@@H](O)c1ccc(C(F)(F)F)cn1 ?
0.1 to 1 µM
